These measurements were taken from PubChem BioAssay (NCI).

Parameter: TGI. Scope: all listed entries.
tested on: 786-0 renal; experiment: NCI tumour cell line growth inhibition, 48 h

CC(=O)c1nc2ccccc2n1CCN1CCN(C)CC1 = > 100 µM
CCCCCCCCc1cc[n+](CC(=O)c2ccc(Br)cc2)cc1 = 3.3 µM
N#Cc1c(-c2ccccc2)cc(-c2ccccc2)n(CC(=O)NO)c1=O = 28 µM
N=[N+]=NC1C(O)C(CO)OC1n1cnc2c(N)ncnc21 (stereo not drawn) = > 100 µM
COC1CC2C3/C(=N/Nc4ccc([N+](=O)[O-])cc4[N+](=O)[O-])CCC2(C)C3C1 (stereo not drawn) = > 10 µM

q: Please give measured TGI of the following entry: O=C(O)C1(c2ccccc2)CCCNCC1 (stereo not drawn)
a: > 100 µM

q: Please give measured TGI of the following entry: CN(C)CCn1nc2c3c(c(C(=O)NCCCN(C)CCCNC(=O)c4ccc5c6c(nn5CCN(C)C)-c5ccccc5Nc46)ccc31)Nc1ccccc1-2
a: 1.28 µM

q: Please give measured TGI of the following entry: O=C(Nc1ccccc1-c1nn(CO)c(=S)n(CO)c1=O)C(F)(F)F
a: > 100 µM

q: Please give measured TGI of the following entry: O=S1CCN(Cc2ccc(-c3ccc4ncnc(Nc5ccc(OCc6ccccc6)c(Cl)c5)c4c3)o2)CC1
a: > 25 µM

q: Please give measured TGI of the following entry: Cc1cc(C)c(-c2cc(O)c(-c3c(C)cc(C)cc3C)cc2O)c(C)c1
a: > 100 µM
